Tested on: MALME-3M melanoma
PROTOCOL_NOTES: NCI tumour cell line growth inhibition, 48 h
READOUT_TYPE: GI50

The reported GI50 of the compound "COc1cc(Nc2ncc(F)c(Nc3ccc4c(n3)NC(=O)C(C)(C)O4)n2)cc(OC)c1OC" was > 100 µM

Sample OC(COc1ccc(F)cc1)Cn1cnc2c(Cl)ncnc21 (centres undefined) ; GI50 observed: 33.6 µM

The reported value for "CN1CCN(c2cc(C(=O)Nc3cc4cc(-c5cnn(C)c5)ccc4cn3)ccn2)CC1" in terms of GI50 is 0.155 µM

So, "CS(=O)(=O)Nc1cccc(-c2cc(-c3ccccc3Cl)c(C#N)c(N)n2)c1" ? Its GI50 was 3.23 µM

====

Tested on: SK-MEL-28 melanoma
PROTOCOL_NOTES: NCI tumour cell line growth inhibition, 48 h
READOUT_TYPE: TGI

Measured TGI of COc1cc(/C=C2/SC(c3ccccc3)N(c3ccccc3)C2=O)cc(OC)c1OC (stereo unspecified) : > 100 µM

// "CS(=O)(=O)CCNCc1ccc(-c2ccc3ncnc(Nc4ccc(OCc5cccc(F)c5)c(C(F)(F)F)c4)c3c2)o1" : TGI value = 7.2 µM

# TGI of "CC(C)(C)NC(=O)NC12CC3CC(CC(F)(C3)C1)C2" = > 100 µM

Entry CC(C)C1CC2C(=O)N(c3ccccc3)C(=O)C2c2[nH]c3ccccc3c21 (stereo unspecified) , TGI reported as > 100 µM

# molecule CC1=CCC2C3(C)CCC2(C(C)C)C1C3 (stereo unspecified) (tested in a mixture with another compound) ; its TGI = 88.6 µM

// "C[C@@H](CN1CC(=O)NC(=O)C1)N1CC(=O)NC(=O)C1" : TGI value = 1750 µM

For this molecule ( O=c1[nH]c2cc([N+](=O)[O-])ccc2nc1/C(=N/Nc1ccccc1)C(O)c1ccc(C(O)/C(=N\Nc2ccccc2)c2cnc3cc([N+](=O)[O-])ccc3n2)cc1 (stereo unspecified) ), measured TGI is > 100 µM

The molecule listed as Cc1ccc2c(sc(-c3ccc4c(c3)sc(-c3ccc5c(c3)sc(-c3ccc(N(C)C)cc3)[n+]5C)[n+]4C)[n+]2C)c1S(=O)(=O)O (tested in a mixture with another compound) shows TGI equal to > 100 µM

Memo: "CN1C(=O)[C@@H](NC(=O)[C@H](CCC(F)(F)F)[C@H](CCC(F)(F)F)C(N)=O)N=C(c2ccccc2)c2ccccc21" , reported TGI: > 100 µM

What the record says about "Cc1cc(S(=O)(=O)/N=C(\[N-]S(=O)(=O)c2ccc(Cl)cc2)[n+]2ccc(N(C)C)cc2)c(S)cc1Cl" : TGI is > 100 µM

In plain terms, "O=[N+]([O-])c1ccc(/C=N/Nc2nnc3c4ccccc4c4ncccc4c3n2)o1" has a documented TGI of > 10 µM

Lab note: COc1cc(C2SC(N)=Nc3c2c(C)nn3C(=O)c2ccccc2O)ccc1O (stereo unspecified) gave TGI of > 10 µM

Recorded TGI (molecule "O=Cc1ccc(-c2ccc(-c3nc4ccccc4o3)cc2)s1" ): > 100 µM

// TGI lookup, molecule = "COc1cc(C)cc2c1c(=O)c1ccccc1n2C" , result: > 100 µM

Noted for "O=C(/C=N/O)Nc1cc(Cl)c(Cl)cc1Cl" : its TGI reads > 100 µM

Lab book: TGI of "COc1ccc(C[C@@H]2NC[C@@H](O)[C@@H]2OC(C)=O)cc1" noted as 0.127 µM
